Data provenance is patent US12521440B2.

- system under test: BTK (Homo sapiens, UniProt Q06187)
- Construct: endogenous in cells; host or cells: TMD-8 cells
- Sequence (Q06187 whole entry): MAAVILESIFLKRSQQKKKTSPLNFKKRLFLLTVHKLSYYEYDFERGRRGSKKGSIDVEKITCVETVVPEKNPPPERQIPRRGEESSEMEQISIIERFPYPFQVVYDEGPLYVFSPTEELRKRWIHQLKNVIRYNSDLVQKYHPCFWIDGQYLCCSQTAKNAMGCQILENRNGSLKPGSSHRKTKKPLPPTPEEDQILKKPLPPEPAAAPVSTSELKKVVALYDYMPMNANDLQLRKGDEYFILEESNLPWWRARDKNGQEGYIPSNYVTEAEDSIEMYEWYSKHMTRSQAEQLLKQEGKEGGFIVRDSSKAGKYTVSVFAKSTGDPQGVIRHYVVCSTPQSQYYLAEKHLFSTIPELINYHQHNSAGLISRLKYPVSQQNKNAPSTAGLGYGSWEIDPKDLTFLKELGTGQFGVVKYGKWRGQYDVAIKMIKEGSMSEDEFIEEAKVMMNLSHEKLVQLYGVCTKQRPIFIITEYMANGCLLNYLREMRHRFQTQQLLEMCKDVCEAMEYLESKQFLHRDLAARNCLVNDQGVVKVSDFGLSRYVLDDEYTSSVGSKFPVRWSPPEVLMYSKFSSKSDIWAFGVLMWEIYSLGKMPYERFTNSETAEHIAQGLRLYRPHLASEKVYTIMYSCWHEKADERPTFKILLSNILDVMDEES
- test protocol: BTK degradation in TMD-8 cells (HTRF assay)
- Format: cell-based
- reported conditions: 6 h treatment, HTRF BTK degradation IC50 (DC50)
Counter-ions that a name gives are not always drawn.
readout kind: log10 DC50 (log10 of the value in nM)
Scale: log10; quantity: DC50; unit before log: nM

Answered cases to consult:
- molecule: "Cc1cc(-c2cc(Nc3ccc(N4CCN(CCc5cccc6c5oc(=O)n6C5CCC(=O)NC5=O)CC4)cn3)ncn2)ccc1[C@@H](C)NC(=O)c1nc(C(C)(C)C)no1 (some centres unmarked) [Example 51, formate]"
  system under test: "BTK (Homo sapiens, UniProt Q06187)"
  assay result: 0.13
- molecule: "Cc1cc(-c2cc(Nc3ccc(N4CCN([C@H]5C[C@@H](c6ccc(N[C@H]7CCC(=O)NC7=O)cc6)C5)CC4)cn3)ncn2)ccc1[C@@H](C)NC(=O)c1nc(C(C)(C)C)no1 [Example 54]"
  system under test: "BTK (Homo sapiens, UniProt Q06187)"
  assay result: 0.62
- molecule: "Cc1cc(-c2cc(Nc3ccc(N4CCN([C@H]5C[C@@H](c6ccc(N[C@@H]7CCC(=O)NC7=O)cc6)C5)CC4)cn3)ncn2)ccc1[C@@H](C)NC(=O)c1nc(C(C)(C)C)no1 [Example 52]"
  system under test: "BTK (Homo sapiens, UniProt Q06187)"
  assay result: 0.48

What value of measured log10 DC50 is listed for Cc1cc(-c2cc(Nc3ccc(N4CCN(CC5CN(c6ccc(C7CCC(=O)NC7=O)cc6)C5)CC4)cn3)ncn2)ccc1[C@@H](C)NC(=O)c1nc(C(C)(C)C)no1 (some centres unmarked) [Example 19] ? 0.40

And what about the molecule Cc1cc(-c2cc(Nc3ccc(N4CCN(CCn5cccc(CN6CCC(=O)NC6=O)c5=O)CC4)cn3)ncn2)ccc1[C@@H](C)NC(=O)c1nc(C(C)(C)C)no1 [Example 58] ? -0.56

And what about the molecule Cc1cc(-c2cc(Nc3ccc(N4CCN([C@H]5C[C@H](c6ccc(N[C@H]7CCC(=O)NC7=O)cc6)C5)CC4)cn3)ncn2)ccc1[C@@H](C)NC(=O)c1nc(C(C)(C)C)no1 [Example 53] ? 0.28

And what about the molecule Cc1cc(-c2cc(Nc3ccc(N4CCN(CC5CCN(c6ccc(N7CCC(=O)NC7=O)cc6F)CC5)CC4)cc3)ncn2)c(F)cc1[C@@H](C)NC(=O)c1nc(C(C)(C)C)no1 [Example 3] ? 2.02

And what about the molecule Cc1cc(-c2cc(Nc3ccc(N4CCN(CC5CCN(c6ccc(N7CCC(=O)NC7=O)cc6)CC5)CC4)cn3)ncn2)ccc1[C@@H](C)NC(=O)c1nc(C(C)(C)C)no1 [Example 16] ? 0.11

And what about the molecule Cc1cc(-c2cc(Nc3ccc(N4CCN(C5CC6(CCN(c7ccc(N8CCC(=O)NC8=O)cc7)CC6)C5)CC4)cn3)ncn2)ccc1[C@@H](C)NC(=O)c1nc(C(C)(C)C)no1 [Example 43] ? 0.48

And what about the molecule Cc1cc(-c2cc(Nc3cccc(N4CCN(C5CC(c6ccc(NC7CCC(=O)NC7=O)cc6)C5)CC4)c3)ncn2)c(F)cc1[C@@H](C)NC(=O)c1nc(C(C)(C)C)no1 (some centres unmarked) [Example 6] ? 1.68

And what about the molecule Cc1cc(-c2cc(Nc3ccc(N4CCN(CC5CCN(c6ccc(N7CCC(=O)NC7=O)cc6)CC5)CC4)nc3)ncn2)ccc1[C@@H](C)NC(=O)c1nc(C2(C)CC2)no1 [Example 10] ? 1.95
